Provenance of the data: patent US20220025029A1

molecular target: T1, natural Fel d1 (Indoor Biotech, #NA-FD1-2) (cat, UniProt P30438 23-92; P30440 18-109); assay: Octet BLI sandwich; captured mAb-1 H4H1300N, which did not pre-complex with nFel d1; self-competition value subtracted
T1 construct: Bought natural heterodimeric glycoprotein, chains linked by disulfide bonds; also called nFel d1; nFel d 1
T1 sequence (P30438 other isoform, or with tags, fused parts or gaps, chain 1 of 2): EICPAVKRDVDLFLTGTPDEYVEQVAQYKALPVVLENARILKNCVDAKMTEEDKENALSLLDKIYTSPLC
T1 sequence (P30440 18-109, chain 2 of 2): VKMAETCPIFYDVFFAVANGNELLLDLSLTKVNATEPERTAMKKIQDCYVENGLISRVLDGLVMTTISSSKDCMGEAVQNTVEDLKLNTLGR
ASSAY READOUT: Response of mAb-2 Binding to nFel d1 pre-complexed with mAb-1 (nm)
Write the value in nm as a bare number.

These recorded examples may help you get a feel for the data.
| BINDER | RESULT VALUE |
| --- | --- |
| H4H2645P (antibody, human IgG4, V domains shown, human IgG4 Fc (H4H prefix)) VH: EVQLVESGGGLVQPGGSLRLSCAASGFTFSTYAMHWVRQAPGKGLEWVSSISGRGRNSDHADSVKGRFTISRDNSKNTLYLQMNSLRAEDTAVYYCARTEYFHHWGQGTLVTVSS VL: DIQMTQSPSSLSASVGDRITITCRASQDINNYLAWFQQKPGKAPKSLIYGASSLQSGVPSKFSGSGSGTDFTLTISSLQPEDFATYYCQQYSSYPFTFGPGTKVDIK | 0.05 |
| H4H1616N (antibody, human IgG4, V domains shown, human IgG4 Fc (H4H prefix)) VH: EVELLESGGGLVQPGGSLRLSCAASGFTFSSYAMSWVRQAPGKGLEWVSSISGRVGSTHFADSVKGRFTFSRDNSKNTLYLQLSSLRAEDTAVYYCARSRGAAYFDYWGQGTLVTVSS VL: DIQMTQSPSSLSASVGDRVTITCQANQDISNFLNWYQQRPGKAPNLLIYAASNLETGVPSRFSGSGSGTDFTFTISSLQPEDIATYYCQHYDNFPFTFGPGTKVDIK | 0.06 |
| H4H2864P (antibody, human IgG4, V domains shown, human IgG4 Fc (H4H prefix)) VH: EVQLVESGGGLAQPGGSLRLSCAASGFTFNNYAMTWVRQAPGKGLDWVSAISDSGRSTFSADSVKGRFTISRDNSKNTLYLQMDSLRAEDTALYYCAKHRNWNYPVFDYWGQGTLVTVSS VL: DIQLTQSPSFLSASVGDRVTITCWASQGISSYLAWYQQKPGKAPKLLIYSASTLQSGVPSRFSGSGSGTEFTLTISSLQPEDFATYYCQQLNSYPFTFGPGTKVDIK | 0.06 |

Read the next record carefully.
Which value of Response of mAb-2 Binding to nFel d1 pre-complexed with mAb-1 has been reported for H4H1232N (antibody, human IgG4, V domains shown, human IgG4 Fc (H4H prefix)) VH: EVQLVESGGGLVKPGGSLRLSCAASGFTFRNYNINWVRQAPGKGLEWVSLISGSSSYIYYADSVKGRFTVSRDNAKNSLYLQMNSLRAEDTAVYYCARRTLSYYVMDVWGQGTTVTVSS VL: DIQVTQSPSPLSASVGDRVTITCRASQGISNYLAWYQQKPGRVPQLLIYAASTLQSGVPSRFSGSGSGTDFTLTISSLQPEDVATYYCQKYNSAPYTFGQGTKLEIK in the records?
0.02
